test-target: T1, CTNI quality control recombinant protein (PK2-CTNI-1, 170120, produced by the applicant) (human, UniProt P19429 2-210, limits assumed)
T1 construct: also called cardiac troponin I
T1 sequence (P19429 2-210 limits assumed): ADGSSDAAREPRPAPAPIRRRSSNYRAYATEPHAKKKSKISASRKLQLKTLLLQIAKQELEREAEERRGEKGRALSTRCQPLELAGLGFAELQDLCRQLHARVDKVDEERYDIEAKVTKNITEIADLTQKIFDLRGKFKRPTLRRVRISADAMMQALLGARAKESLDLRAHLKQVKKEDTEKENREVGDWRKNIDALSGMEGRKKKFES
assay-comment: AMC sensor kinetics, antibody captured, cTnI analyte
Measured koff, listed per entry.
Report the figure in s⁻¹ without appending any unit label.

The cases that follow already have their koff on record.
binder	units-of-measure	koff
Mutation 1-2 (antibody, V domains shown, built as for Mutation 1) VH: EVQLQQSGAELVKPGASVKLSCTASGFNIKDYFMHWMKQRTEQGLDWIGRIDPEDGETRYAPEFQGKATITADTSSNTAYLQLSTLTSEDTAVYYCARYYSSYVPFVYWGQGTLVTASA VL: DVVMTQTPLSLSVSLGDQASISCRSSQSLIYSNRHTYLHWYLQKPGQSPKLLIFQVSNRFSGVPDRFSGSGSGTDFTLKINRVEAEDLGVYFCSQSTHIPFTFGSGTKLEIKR	s⁻¹	0.000268
Mutation 1-18 (antibody, V domains shown, built as for Mutation 1) VH: EVQLQQSGAELVKPGASVKLSCTASGFNIKDYFMHWMKQRTEQGLDWIGRIDPEDAETKYAPEFQGKATITADTSSNTAYLQLSTLTSEDTAVYYCARYYSSYIPFVYWGQGTLVTASA VL: DVVMTQTPLSLSVSLGDQASISCRSSQSILYSNRHTYLHWYLQKPGQSPKLLIFQISNRFSGVPDRFSGSGSGTDFTLKINRVEAEDLGVYFCSQSTHLPFTFGSGTKLEIKR	s⁻¹	0.000282
Mutation 1-13 (antibody, V domains shown, built as for Mutation 1) VH: EVQLQQSGAELVKPGASVKLSCTASGFNLKDYYMHWMKQRTEQGLDWIGRIDPEDAETRYAPEFQGKATITADTSSNTAYLQLSTLTSEDTAVYYCARYYSSYVPFVYWGQGTLVTASA VL: DVVMTQTPLSLSVSLGDQASISCRSSQSLIYSNRHTYLHWYLQKPGQSPKLLIFQVSNRFSGVPDRFSGSGSGTDFTLKINRVEAEDLGVYFCSQSTHLPFTFGSGTKLEIKR	s⁻¹	0.000251
Mutation 1-31 (antibody, V domains shown, built as for Mutation 1) VH: EVQLQQSGAELVKPGASVKLSCTASGFNIKDYYMHWMKQRTEQGLDWIGRIDPEDAETKYAPEFQGKATITADTSSNTAYLQLSTLTSEDTAVYYCARYYSSYVPFVYWGQGTLVTASA VL: DVVMTQTPLSLSVSLGDQASISCRSSQSILYSNRHTYLHWYLQKPGQSPKLLIFQVSNRFSGVPDRFSGSGSGTDFTLKINRVEAEDLGVYFCSQSTHIPYTFGSGTKLEIKR	s⁻¹	0.000301
Mutation 1-12 (antibody, V domains shown, built as for Mutation 1) VH: EVQLQQSGAELVKPGASVKLSCTASGFNLKDYFMHWMKQRTEQGLDWIGRIDPEDGETKYAPEFQGKATITADTSSNTAYLQLSTLTSEDTAVYYCARYYSSYLPFVYWGQGTLVTASA VL: DVVMTQTPLSLSVSLGDQASISCRSSQSILYSNRHTYLHWYLQKPGQSPKLLIFQLSNRFSGVPDRFSGSGSGTDFTLKINRVEAEDLGVYFCSQSTHLPYTFGSGTKLEIKR	s⁻¹	0.000258

Prompt: Find the recorded koff belonging to Mutation 1-22 (antibody, V domains shown, built as for Mutation 1) VH: EVQLQQSGAELVKPGASVKLSCTASGFNIKDYFMHWMKQRTEQGLDWIGRIDPEDGETRYAPEFQGKATITADTSSNTAYLQLSTLTSEDTAVYYCARYYSSYVPFVYWGQGTLVTASA VL: DVVMTQTPLSLSVSLGDQASISCRSSQSIIYSNRHTYLHWYLQKPGQSPKLLIFQVSNRFSGVPDRFSGSGSGTDFTLKINRVEAEDLGVYFCSQSTHLPYTFGSGTKLEIKR and report it.
Completion: 0.000215

Prompt: Find the recorded koff belonging to Mutation 1-21 (antibody, V domains shown, built as for Mutation 1) VH: EVQLQQSGAELVKPGASVKLSCTASGFNLKDYYMHWMKQRTEQGLDWIGRIDPEDAETKYAPEFQGKATITADTSSNTAYLQLSTLTSEDTAVYYCARYYSSYLPFVYWGQGTLVTASA VL: DVVMTQTPLSLSVSLGDQASISCRSSQSLLYSNRHTYLHWYLQKPGQSPKLLIFQLSNRFSGVPDRFSGSGSGTDFTLKINRVEAEDLGVYFCSQSTHLPFTFGSGTKLEIKR and report it.
Completion: 0.000477
